biological target: PD-L1 (Homo sapiens, UniProt Q9NZQ7); construct: determine if they can specifically dimerize the extracellular domains of PD-L1; test: PD-L1/PD-L1 dimerization biochemical protein-protein interaction assay (ALPHA); type: binding; details: compound-induced PD-L1 dimerization, head prints '1 nM' (0.5 nM His-tagged PD-L1 and 0.5 nM FLAG-tagged PD-L1), read-out: AC50 PDL1 Dimer Alpha 1 nM
Sequence (Q9NZQ7 19-238 limits assumed): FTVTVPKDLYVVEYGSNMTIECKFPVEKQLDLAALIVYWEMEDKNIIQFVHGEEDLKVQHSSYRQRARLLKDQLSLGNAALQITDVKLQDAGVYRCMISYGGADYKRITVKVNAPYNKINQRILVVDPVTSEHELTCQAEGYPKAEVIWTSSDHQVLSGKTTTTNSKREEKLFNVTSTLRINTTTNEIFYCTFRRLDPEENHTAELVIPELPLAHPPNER
Sequence (Q9NZQ7 19-238 limits assumed): as above

| Compound | Experimental System | Readout Unit | AC50 |
| --- | --- | --- | --- |
| N#Cc1cncc(COc2nc(O[C@H]3CCc4c(-c5cccc6c5CC[C@@H]6Oc5nc(OCc6cncc(C#N)c6)c(CNCCO)cc5Br)cccc43)c(Br)cc2CNCCO)c1 [Example 751] | PD-L1 (Homo sapiens, UniProt Q9NZQ7) | nM | 182 |
| COc1nc(O[C@H]2CCc3c(-c4cccc(-c5ccc(CNC[C@@H]6CCC(=O)N6)cc5)c4Cl)cccc32)c(Cl)cc1CN1CCC[C@H]1C(=O)O [Example 725] | PD-L1 (Homo sapiens, UniProt Q9NZQ7) | nM | 14.3 |
| COc1nc(-c2cccc(-c3cccc(COc4cc(OCc5cncc(C#N)c5)c(CNC[C@@H](O)CC(=O)O)cc4Cl)c3C)c2C)ccc1C1=NCCN1 [Example 505] | PD-L1 (Homo sapiens, UniProt Q9NZQ7) | nM | 55 |

---

target: PD-L1 (Homo sapiens, UniProt Q9NZQ7); construct: determine if they can specifically dimerize the extracellular domains of PD-L1; test: PD-L1/PD-L1 dimerization biochemical protein-protein interaction assay (ALPHA); format: binding; settings: compound-induced PD-L1 dimerization, head prints '1 nM' (0.5 nM His-tagged PD-L1 and 0.5 nM FLAG-tagged PD-L1), read-out: AC50 PDL1 Dimer Alpha 1 nM

| Molecule | AC50, nM |
| --- | --- |
| COc1nc(O[C@H]2CCc3c(-c4cccc(-c5ccc(C6=NCCN6)c(OC)n5)c4Cl)cccc32)c(Br)cc1CN1CC2(C1)CN(C(C)=O)C2 [Example 775] | 68 |
| Cc1c(COc2cc(OCc3cncc(C#N)c3)c(CNC[C@@H](O)CC(=O)O)cc2Cl)cccc1-c1cccc(-n2cc(CN3CCCC3)nn2)c1C [Example 449] | 1490 |
| COc1nc(-c2cccc(-c3cccc4c3CC[C@@H]4Oc3nc(OC)c(CN4CC[C@H](C(=O)O)C4)cc3Cl)c2Cl)ccc1CN1CC2(CCC(=O)N2)C1 [Example 714] | 66.3 |

---

target: PD-L1 (Homo sapiens); construct: determine if they can specifically dimerize the extracellular domains of PD-L1; experiment: PD-L1/PD-L1 dimerization biochemical protein-protein interaction assay (ALPHA); type: binding; conditions: compound-induced PD-L1 dimerization, head prints '1 nM' (0.5 nM His-tagged PD-L1 and 0.5 nM FLAG-tagged PD-L1), read-out: AC50 PDL1 Dimer Alpha 1 nM
Listed next: entries and their corresponding AC50.

| Compound | AC50 (nM) |
| --- | --- |
| Cc1c(COc2cc(OCc3cncc(C#N)c3)c(CNC[C@@H](O)CC(=O)O)cc2Cl)cccc1-c1cccc(-c2nc3cc(CNC[C@@H](O)CC(=O)O)ccc3o2)c1C | 124 |
| COc1nc(O[C@H]2CCc3c(-c4cccc(-c5ccc6c(c5)C[C@@H](N)C6)c4Cl)cccc32)c(Br)cc1CN[C@@](C)(CO)C(=O)O | 28.9 |
| COc1nc(-c2cccc(-c3cccc4c3CC[C@@H]4Oc3nc(OC)c(CN[C@@H]4CCC[C@@H]4O)cc3Cl)c2Cl)ccc1CN[C@@H]1CCC[C@@H]1O | 73.2 |
| CN1CCCC1c1ccc(-c2cccc(-c3cccc4c3CC[C@@H]4Oc3nc(OCc4cncc(C#N)c4)c(CNC(C)(C)C(=O)O)cc3Cl)c2Cl)cc1 (some centres unmarked) | 24.5 |
| Cn1cc(CN2CC3(CCC(=O)N3)C2)c2ncc(-c3cccc(-c4cccc(-c5cnc6c(CN7CC8(CCC(=O)N8)C7)cn(C)c6n5)c4Cl)c3Cl)nc21 | 164 |
| COc1nc(O[C@H]2CCc3c(-c4cccc(-c5cnc6c(CNC[C@@H]7CCC(=O)N7)cn(C)c6n5)c4Cl)cccc32)c(Cl)cc1CN1CCC[C@@H](C(=O)O)C1 | 73.6 |
| COc1nc(-c2cccc(-c3cccc4c3CC[C@@H]4Oc3nc(OCc4cncc(C#N)c4)c(CN[C@@](C)(CO)C(=O)O)cc3Br)c2Br)ccc1CNC[C@@H]1CCC(=O)N1 | 24.7 |
| Cc1c(COc2cc(OCc3cncc(C#N)c3)c(CNC[C@@H](O)CC(=O)O)cc2Cl)cccc1-c1cccc(-c2ccc(OCCNC[C@@H](O)CC(=O)O)c(C(N)=O)c2)c1C | 144 |
| Cc1c(COc2nc(OCCC(=O)N(C)C)c(CNC[C@@H](O)CC(=O)O)cc2Br)cccc1-c1cccc(COc2nc(OCCC(=O)N(C)C)c(CNC[C@@H](O)CC(=O)O)cc2Br)c1C | 250 |
| COc1nc(O[C@H]2CCc3c(-c4cccc(-c5cc(C)c(CNC[C@@H]6CCC(=O)N6)c(OC)n5)c4Cl)cccc32)c(Cl)cc1CN1CC[C@@](C)(C(=O)O)C1 | 25.6 |
| N#Cc1cncc(COc2nc(O[C@H]3CCc4c(-c5cccc(-c6ccc(OCCNCCO)cc6)c5Cl)cccc43)ccc2CNC[C@@H](O)CC(=O)O)c1 | 126 |
